The following compounds are listed with their measured TGI values.
test system: LXFL 529 NSCLC; test: NCI tumour cell line growth inhibition, 48 h
Report the value in µM with no unit label.

# annotated cases, reported TGI shown
INSERT INTO assay_data (compound, readout_kind, value_observed) VALUES
  ('Cc1ccc(NC(=O)CC2Sc3ccccc3NC2=O)c(C)c1 (centres undefined)', 'TGI', 71.1),
  ('Cc1cccc(C(C)(C)C)c1NC(=O)CC1C(=O)Nc2ccccc2S1(=O)=O (centres undefined)', 'TGI', 24.5),
  ('C[C@]12CC/C(=N\O)C=C1CC[C@@H]1C2CC[C@@]2(C)C1CC[C@@H]2OC1CCCCO1 (some centres undefined)', 'TGI', 31.8),
  ('CCOC(=O)N1CCC(=O)C(CNC23CC4CC(CC(C4)C2)C3)C1 (centres undefined)', 'TGI', 33.3);

Moving on to another compound below.
For record CC(C)([NH-])CO.CC(C)([NH-])CO.[Cl][Cd][Cl] the listed TGI is 29.3

* * *

The following compounds are listed with their measured TGI values.
system: T-47D breast; assay: NCI tumour cell line growth inhibition, 48 h

# annotated cases, reported TGI shown
INSERT INTO results (compound, readout_kind, value_observed) VALUES
  ('Cc1csc(/C=C/C(=O)c2nnn(-c3ccnc4c(C(F)(F)F)cccc34)c2C)c1', 'TGI', '> 100 µM'),
  ('C/C(=N\NS(=O)(=O)c1ccc(C)cc1)P(=O)(O)O', 'TGI', '> 100 µM');

Result for COC(=O)c1cc(C(=CCC[C@H]2CC[C@@]3(C)C(CCC4C3CC[C@@]3(C)C4CC[C@@H]3C(C)CCCC(C)C)C2)c2cc(Cl)c(O)c(C(=O)OC)c2)cc(Cl)c1O (stereo not given in full) , tested on T-47D breast, TGI: > 10 µM

Result for COC(=O)c1cc(O)c2cc3c(cc2c1-c1cc(OC)c(OC)c(OC)c1)OCO3 , tested on T-47D breast, TGI: > 100 µM

Result for COc1ccc(Cc2nnc(Nc3ccc(Br)cc3)[nH]c2=O)cc1OC , tested on T-47D breast, TGI: > 100 µM

Result for CN1C(=O)C2(C=CC(O)CC2)c2ccccc21 (stereo not given) , tested on T-47D breast, TGI: > 100 µM

Result for Cc1ccc(/C(O)=C/C(=O)C(=O)NC23CC4CC(CC(C4)C2)C3)cc1 , tested on T-47D breast, TGI: > 10 µM

Result for N#CC(=N)c1ncn(-c2ccc(N)cc2)c1N , tested on T-47D breast, TGI: > 100 µM

Result for O=c1ccn(COC(COCc2ccccc2)COCc2ccccc2)c(=O)[nH]1 , tested on T-47D breast, TGI: > 100 µM

Result for Cc1nc2ccccc2c(/C=C/c2ccc(Cl)cc2)c1C(=O)/C=C/c1ccc(C(F)(F)F)cc1 , tested on T-47D breast, TGI: 1.46 µM

Result for CC(C)C(=O)Nc1cc(C(F)(F)F)ccc1[N+](=O)[O-] , tested on T-47D breast, TGI: > 100 µM

Result for NCC1OC(n2cnc3c(N)ncnc32)CC1O (stereo not given) , tested on T-47D breast, TGI: > 100 µM

Result for CC[C@@]1(C)CCC2c3ccc(O)cc3CC[C@H]2C1C (stereo not given in full) , tested on T-47D breast, TGI: 39.3 µM

Result for CC(=O)O[C@H]1CC[C@@]2(C)C(=CC[C@@H]3[C@@H]2CC[C@]2(C)c4c(C)nn(-c5ccccc5)c4C[C@@H]32)C1 , tested on T-47D breast, TGI: > 100 µM
